System: M14 melanoma
test.name: NCI tumour cell line growth inhibition, 48 h
attribute.measured: TGI

Problem: Entry under review: `CCOc1cc(/C=N/c2nc3cc4sc(/N=C/c5ccc(O)c(OCC)c5)nc4cc3s2)ccc1O` . Reported TGI?
Result: > 100 µM

Problem: Suppose we examine the compound `O=C(Nc1ccc(Oc2ccc(NC(=O)Nc3ccccc3Cl)cc2)cc1)Nc1ccccc1Cl` ; what TGI value has been reported?
Result: > 100 µM

Problem: Entry under review: CCOc1ccc(N2C(=O)NC3(c4ccccc4)N(C)C(=O)N(C)C23c2ccccc2)cc1 (stereo unspecified) . Reported TGI?
Result: > 100 µM

Problem: Entry NC1=NCC(CN2CCCCC2)O1 (stereo unspecified) : reported TGI = ?
Result: > 100 µM

Problem: May I ask what TGI has been recorded for `Cc1occc1C(=S)Nc1ccc(Cl)c(C(=O)OCC(C)C)c1` ?
Result: 65 µM

Problem: Any idea what its TGI is? The compound is `Cc1ccc2nc(Sc3c([N+](=O)[O-])ncn3C)[nH]c2c1`
Result: 92.5 µM
